Assay: qHTS assay to identify small molecule agonists or antagonists of the thyroid stimulating hormone receptor (TSHR) signaling pathway - wild type cell line counter screen (AID 1259384)
Conditions: HEK293 wild type, cAMP HTRF counter-screen; series mostly up to 92.4 µM
Results filed as inconclusive are left out. Activity calls are given as the source filed them. The call rests on the fitted dose curve.
property_name: outcome

In the examples that follow, each entry is paired with its recorded outcome.
- smiles_code: "CNCCCC12CCC(c3ccccc31)c1ccccc12"
  outcome: "inactive"
- smiles_code: "Cc1ccc(C)c(O)c1C"
  outcome: "inactive"
- smiles_code: "Nc1ccc(Cl)cc1Cl"
  outcome: "inactive"
- smiles_code: "CCCC(=O)O"
  outcome: "inactive"
- smiles_code: "Brc1cc(Oc2cc(Br)c(Br)c(Br)c2Br)c(Br)c(Br)c1Br"
  outcome: "inactive"

Request the reported outcome associated with CC(=O)CC/C=C(\C)CCC=C(C)C inactive

Request the reported outcome associated with COc1cc([C@@H]2c3cc4c(cc3[C@H](O)[C@H]3COC(=O)[C@H]23)OCO4)cc(OC)c1OC inactive

---

Test: qHTS assay to identify small molecule that activate the aryl hydrocarbon receptor (AhR) signaling pathway - cell viability counter screen (AID 743086); further: nearly all actives have a fitted effect of over 45% in size
Details: HepG2-AhR-luc viability, CellTiter-Fluor, 24 h; series mostly up to 70.3 µM
Results filed as inconclusive are left out. Active and inactive are the calls of the source. Calls follow the shape of the dose curve; as a rule, active = well fitted cell-killing curve with a large enough effect in the repeat runs; inconclusive = weak or mixed curves, or effect the other way; inactive = flat fitted curve, though single readings scatter.
# output must be one of active, inactive

Outcome? COc1ccccc1/C=C/C=O inactive

Outcome? Nc1ccccc1N active

Outcome? Cc1cccc(C(=O)O)c1 inactive

Outcome? O=CCCCC=O inactive

---

Molecular target: Nuclear receptor subfamily 1 group I member 2 (Homo sapiens)
Test: Human pregnane X receptor (PXR) small molecule agonists, qHTS assay (AID 1346982); further: nearly all actives have a fitted effect of over 35% in size
Settings: PXR-Luc HepG2, CYP3A4 luciferase reporter, 24 h; series mostly up to 92.4 µM
Description: National Center for Advancing Translational Sciences [NCATS] NIH Chemical Genomics Center [NCGC] U.S. Environmental Protection Agency [EPA] National Institutes of Environmental Health Sciences [NIEHS] National Toxicology Program [NTP] The human pregnane X receptor (hPXR) regulates the expression of several drug metabolizing enzymes and induction of these proteins is a major mechanism for developing drug resistance in cancer. […]
Inconclusive results are not listed. Active and inactive are the calls of the source. Calls come from the whole dose curve; as a rule, active = well fitted activation curve with a large enough effect in the repeat runs; inconclusive = weak or mixed curves; inactive = no such curve, though single readings can be large or run the other way.
# output must be one of true for active, false for inactive

Outcome? NC=O false

Outcome? c1ccc2c(c1)c1cccc3ccc4cccc2c4c31 false

Outcome? C=C(C)C(=O)OCCOC(=O)C(=C)C false

Outcome? c1ccc2c(c1)Oc1ccccc1S2 false

Outcome? Cc1cccc([N+](=O)[O-])c1C false

Outcome? O=C(Nc1ccc(Cl)cc1)Nc1ccc(Cl)c(Cl)c1 true

Outcome? O=C(/C=C/C=C/c1ccc2c(c1)OCO2)N1CCCCC1 true

Outcome? Nc1ccc(S(=O)(=O)Nc2cnc3ccccc3n2)cc1 false

Outcome? c1cc(-c2ccncc2)ccn1 false

Outcome? CC(C)OB(OC(C)C)OC(C)C false

Outcome? CC(=O)C1(C)CC2=C(CCCC2(C)C)CC1C (centres undefined) false

Outcome? OCCO false

Outcome? CC(=O)c1ccccn1 false

Outcome? CC(C)(C)NC(=O)[C@H]1CC[C@H]2[C@@H]3CC[C@H]4NC(=O)C=C[C@]4(C)[C@H]3CC[C@]12C true

Outcome? CCC(C)c1ccccc1O (centres undefined) false

Outcome? CCCC(=O)O false

Outcome? C[C@]12CCC(=O)C=C1CC[C@@H]1[C@@H]2C(=O)C[C@@]2(C)[C@H]1CC[C@]2(O)C(=O)CO false

Outcome? CCCCOCCOCCO false

Outcome? COC(C)COC(C)COC(C)CO (centres undefined) false

Outcome? CCC(C)CO (centres undefined) false

Outcome? O=S(=O)(O)c1ccc(O)cc1 false

Outcome? O=CCc1ccccc1 false

Outcome? CC(C)OC(=O)C(C)(C)Oc1ccc(C(=O)c2ccc(Cl)cc2)cc1 true

Outcome? CC(C)OC=O false

Outcome? O=C1OC2(c3cc(Br)c(O)c(Br)c3Oc3c2cc(Br)c(O)c3Br)c2c(Cl)c(Cl)c(Cl)c(Cl)c21 false

Outcome? C/C=C/C(=O)O false

Outcome? CCC(C)(O)CCCC(C)C (centres undefined) false

Outcome? COc1cccc2c1C(=O)c1c(O)c3c(c(O)c1C2=O)C[C@@](O)(C(=O)CO)C[C@@H]3O[C@H]1C[C@H](N)[C@H](O)[C@H](C)O1 false

Outcome? CCOCCOCCO false
